The measured values listed here are drawn from patent US20250195513A1.

Please go through the items and note down their Dmax.
biological target: IRAK4 (Homo sapiens); construct: endogenous in cells; host or cells: Karpas299; assay: IRAK4 Degradation Assay (Karpas299, HTRF/TR-FRET); type: cell-based; conditions: Karpas-299 cells, 24 h treatment; maximum percentage of degradation; read-out: IRAK4 in Karpas-299 (24 h) Dmax (%)
Sequence (Q9NWZ3 whole entry): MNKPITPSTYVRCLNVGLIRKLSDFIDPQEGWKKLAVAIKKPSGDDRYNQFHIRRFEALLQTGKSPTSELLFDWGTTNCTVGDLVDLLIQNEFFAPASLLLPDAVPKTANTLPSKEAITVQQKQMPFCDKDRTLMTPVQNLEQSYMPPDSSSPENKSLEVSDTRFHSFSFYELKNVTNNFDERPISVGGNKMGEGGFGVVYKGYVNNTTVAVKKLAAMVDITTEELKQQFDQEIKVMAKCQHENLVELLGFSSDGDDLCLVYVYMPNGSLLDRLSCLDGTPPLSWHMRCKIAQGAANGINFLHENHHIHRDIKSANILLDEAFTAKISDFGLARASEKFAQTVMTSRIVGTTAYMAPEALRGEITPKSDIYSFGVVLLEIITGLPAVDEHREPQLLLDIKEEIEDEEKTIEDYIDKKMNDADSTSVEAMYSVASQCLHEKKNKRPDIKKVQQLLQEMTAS
I only need the number, in %, no unit after it.

Query :: Name the recorded Dmax of the item COC[C@H]1CN([C@H]2CC[C@H](n3cc4cc(NC(=O)c5ccc6cc(C#N)cnn56)c(C(C)(C)O)cc4n3)CC2)CCN1C1CCN(c2ccc(C3CCC(=O)NC3=O)nc2C)CC1 (some centres unmarked) in your answer.
Result :: 97

Query :: Name the recorded Dmax of the item "CC(C)(O)c1cc2nn([C@H]3CC[C@H](N4CCN(C(=O)CNc5cc(F)c([C@H]6CCC(=O)NC6=O)c(F)c5)CC4)CC3)cc2cc1NC(=O)c1ccc2cc(C#N)cnn12" in your answer.
Result :: 97

Query :: Name the recorded Dmax of the item "Cc1cc(-c2nc(C(=O)Nc3cn(-c4ccc(N5CCN(C(=O)[C@@H]6CCN(c7cc(F)c([C@H]8CCC(=O)NC8=O)c(F)c7)C6)CC5)nc4)nc3C(N)=O)co2)ccn1" in your answer.
Result :: 95

Query :: Name the recorded Dmax of the item "NC(=O)c1nn([C@H]2CC[C@H](N3CCN(C(=O)C4CN(c5cc(F)c([C@H]6CCC(=O)NC6=O)c(F)c5)C4)CC3)CC2)cc1NC(=O)c1coc(-c2ccnc(NCC(F)(F)F)c2)n1" in your answer.
Result :: 97

Query :: Name the recorded Dmax of the item "CC(C)(O)c1cc2nn(C3CCN(C4CCN(C(=O)[C@@H]5CCN(c6ccc(N7CCC(=O)NC7=O)cc6)C5)CC4)CC3)cc2cc1NC(=O)c1cccc(C(F)(F)F)n1" in your answer.
Result :: 96
